test system: T1, recombinant hPD-1 (construct not stated) (human, UniProt Q15116 25-167, limits assumed)
T1 construct: also called huPD-1; Human PD1
T1 sequence (Q15116 25-167 limits assumed): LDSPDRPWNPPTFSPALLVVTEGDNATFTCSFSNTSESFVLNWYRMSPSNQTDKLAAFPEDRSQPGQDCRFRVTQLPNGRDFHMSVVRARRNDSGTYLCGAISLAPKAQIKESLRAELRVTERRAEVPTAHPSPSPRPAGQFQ
test summary: SPR, Ab captured, PD-1 analyte
parameter: koff (s⁻¹)
Kindly answer with a numeric value in s⁻¹, unit omitted.

ZJN296-0 (antibody, human IgG1, V domains shown, human IgG1; also called humanized ZJN296-0; GH + GL) VH: QVQLVQSGAEVKKPGASVKVSCKASGYDFTSHWMHWVRQAPGQGLEWMGAIDPSDSYTNYNQKFKGRVTMTTDTSTSTAYMELRSLRSDDTAVYYCARSPFDYWGQGTTVTVSS VL: DIQMTQSPSSLSASVGDRVTITCKASQDVSTAVAWYQQKPGKAPKLLIYSASYRYTGVPSRFSGSGSGTDFTFTISSLQPEDIATYYCQQHYSFPFTFGQGTKLEIK
0.000495
ZJN296-2 (antibody, V domains shown, human IgG1; also called GH + T071V, GL) VH: QVQLVQSGAEVKKPGASVKVSCKASGYDFTSHWMHWVRQAPGQGLEWMGAIDPSDSYTNYNQKFKGRVTMTVDTSTSTAYMELRSLRSDDTAVYYCARSPFDYWGQGTTVTVSS VL: DIQMTQSPSSLSASVGDRVTITCKASQDVSTAVAWYQQKPGKAPKLLIYSASYRYTGVPSRFSGSGSGTDFTFTISSLQPEDIATYYCQQHYSFPFTFGQGTKLEIK
0.000324
ZJN296-6 (antibody, V domains shown, human IgG1; also called GH + T071V + T073R, GL) VH: QVQLVQSGAEVKKPGASVKVSCKASGYDFTSHWMHWVRQAPGQGLEWMGAIDPSDSYTNYNQKFKGRVTMTVDRSTSTAYMELRSLRSDDTAVYYCARSPFDYWGQGTTVTVSS VL: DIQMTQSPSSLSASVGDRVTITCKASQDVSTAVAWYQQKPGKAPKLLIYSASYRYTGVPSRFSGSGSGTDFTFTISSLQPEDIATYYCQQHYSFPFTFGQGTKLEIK
0.000201

Attention now turns to another entry.
Ask: Which koff is listed for ZJN296-3 (antibody, V domains shown, human IgG1; also called GH + T073R, GL) VH: QVQLVQSGAEVKKPGASVKVSCKASGYDFTSHWMHWVRQAPGQGLEWMGAIDPSDSYTNYNQKFKGRVTMTTDRSTSTAYMELRSLRSDDTAVYYCARSPFDYWGQGTTVTVSS VL: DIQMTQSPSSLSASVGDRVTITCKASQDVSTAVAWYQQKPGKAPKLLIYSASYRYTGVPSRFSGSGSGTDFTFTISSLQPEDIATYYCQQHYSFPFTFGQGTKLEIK ?
Result: 0.000369

The reported measurements were obtained from patent US20260207767A1.
